Data provenance: patent US10961215B2

Answer each item with its documented Emax.
Target: GST tagged LXRalpha LBD (ligand binding domain) (Homo sapiens, UniProt Q13133)
Construct: purchased Invitrogen pv4655
Sequence (Q13133 209-447 limits assumed): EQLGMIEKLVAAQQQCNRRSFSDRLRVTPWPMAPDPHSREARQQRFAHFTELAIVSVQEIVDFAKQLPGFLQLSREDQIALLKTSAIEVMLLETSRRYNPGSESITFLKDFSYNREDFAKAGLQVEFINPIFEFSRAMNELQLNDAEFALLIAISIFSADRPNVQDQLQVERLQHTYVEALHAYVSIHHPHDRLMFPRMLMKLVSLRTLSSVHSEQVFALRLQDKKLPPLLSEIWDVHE
Experiment: LanthaScreen TR-FRET Liver X Receptor Coactivator Assay, LXR alpha-LBD (co-activator recruitment; IP and % Emax relative to T0901317)
Assay type: biochemical
Details: efficacy at max dose in relation to reference T0901317, LXR alpha-LBD; read-out: LXR alpha actiivty at max dose (%)
Field format: number, assumed %, no unit text.

Quote Emax reported for CNC(=O)c1ccc(N2CCC(c3ccc(NC(=O)[C@](O)(c4cccc(OC)c4)C(F)(F)F)cc3)CC2)cc1Cl [Example 10-2] please. 0

Specify reported Emax for the compound shown: CN(C)C(=O)c1ccc(N2CCC(CCCN(C)C(=O)[C@](O)(c3cccc(OC(F)(F)F)c3)C(F)(F)F)CC2)nc1Cl [Example 1-40] 0

Indicate its recorded Emax; the compound in question is COc1cccc([C@@](O)(C(=O)N(C)CCCC2CCN(c3ccc(C(N)=O)c(Cl)n3)CC2)C(F)(F)F)c1 [Example 2-16] 12

Check the records and state Emax for CN(C)C(=O)c1ccc(N2CCC(CCCN(C)C(=O)C(O)C(F)(F)F)CC2)nc1Cl (stereo not shown) [Example 1-52] 11

Give Emax for CN[C@@](C(=O)N(C)CCCC1CCN(c2ccc(C(=O)N(C)C)c(Cl)n2)CC1)(c1cccc(OC)c1)C(F)(F)F [Example 1-57] 0

Name the recorded Emax of the item COc1cccc([C@@](O)(C(=O)N(C)CCCC2(C)CCN(c3ccc(C(=O)N(C)C)c(Cl)n3)CC2)C(F)(F)F)c1 [Example 9-1] in your answer. 0

Hello, please tell me recorded Emax for this one: CN(C)C(=O)c1ccc(N2CCC(CCCN(C)C(=O)[C@@](O)(c3cccc(OC4CC4)c3)C(F)(F)F)CC2)nc1Cl [Example 1-35] 14
